B1: Osa-1-4 twister ribozyme (parent)
chain: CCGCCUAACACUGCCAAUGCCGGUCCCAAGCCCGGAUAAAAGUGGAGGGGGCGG

variants of: B1; test: self-cleavage, relative activity (ratio to wild type); higher = more cleavage; co-transcriptional
Rule: self-cleavage of 0.08 or more gives MET; anything lower gives NOT MET.

CHAIN	CLASSIFICATION
CCGCCUAACAAUGCCAACGCCGGUCCCAAGCCCGGAUAAAAGUGGAGGGGGCGG [C11A U18C]	MET
CCGCCUAACACUGCUAAUGCCGGUCCCAAGCCCGGAAAAAAGUGGAGGGGGCGG [C15U U37A]	MET
CCGCCUAACACUGCCAAUGCCGGUCCCAAGCCCGGAUAAAAUUGGCGGGGGCGG [A46C G42U]	NOT MET
CCGCCUAACGCUGCCAAUGCCGGUCCCAAGCCCGGAUAAAAGUGGAGGGGACGG [A10G G51A]	MET
CCGCCUAACACUGCCAAUGCCGGUCCCAAGCCCGGAUAAAAGUGGAGGAGGAGG [C52A G49A]	MET
CCGCCUAACACUGCCAAUGCCGGUCCCAAGCCCGGAUCAAAGUGGAGGGGGCGA [A38C G54A]	MET
CCGCCUAACACUGCCAAUGCCGGUCCCAACCCCGGAUAAACGUGGAGGGGGCGG [A41C G30C]	NOT MET
CCGCCUAACACUGCCAAUGCCGGUCCCAAUCCCGGAUUAAAGUGGAGGGGGCGG [A38U G30U]	NOT MET
CCGCCUAACACUGCCAAUGCCGGUCCCAAGCCCGGAUAAAAGUGGAGUGGCCGG [G48U G51C]	NOT MET
CCGCCUACCACUGCCAAUGCCGGUCCCAACCCCGGAUAAAAGUGGAGGGGGCGG [A8C G30C]	NOT MET
